These entries and their values trace back to paper PMC4552634.

test system: P. falciparum stage V gametocytes; design: BacTiter-Glo ATP luminescence viability of purified stage V gametocytes in 384-well plates, per cent inhibition versus DMSO; details: 48 h, 5 µM; inhibitor
About 3,200 (25%) of roughly 13,000 compounds showed an effect of 50% or more. Some of the results follow.
Where % Inhibition equals or exceeds -10%, the correct label is MET; where it does not, the label is NOT MET.

- Compound: "CC(C)(C)c1ccc(NC(=O)c2ccc(CN3CCCN(Cc4ccsc4)CC3)cc2)cc1"
  Answer label: "MET"
- Compound: "O=C(Nc1cc(Cl)ccc1O)c1cc(-c2ccccc2O)no1"
  Answer label: "NOT MET"
- Compound: "O=C(Nc1ccc(OC2CCN(Cc3ccccc3)C2)c(Cl)c1)c1ccc(F)cc1 (stereo not drawn)"
  Answer label: "MET"
- Compound: "O=C1OC(c2ccccc2)(c2ccccc2)CN1C1CCN(Cc2ccc(O)c(Cl)c2)C1 (stereo not drawn)"
  Answer label: "NOT MET"
- Compound: "CC[C@H]1CN2CC[C@H]1C[C@H]2[C@H](O)c1ccnc2ccc(C#N)cc12"
  Answer label: "MET"
- Compound: "CC(C)C[C@H](NC(=O)c1cccc(F)c1)C(=O)N[C@H](/C=N/NC(=O)c1ccccc1)CCc1ccccc1"
  Answer label: "MET"
- Compound: "CCc1sc(N2CCN(C)CC2)nc1C(=O)Nc1ccc(F)cc1C(F)(F)F"
  Answer label: "MET"
- Compound: "CC(C)CCCC(C)(C)NC[C@@H](O)[C@H](Cc1ccccc1)NC(=O)c1cc(NC(C)C)cc(N2CCCCS2(=O)=O)c1F"
  Answer label: "MET"
- Compound: "CCCCCc1cc(O)c2c(c1)OC(C)(C)CC2C1=CCN(Cc2cnc3ccccc3c2)CC1 (stereo not drawn)"
  Answer label: "NOT MET"
- Compound: "CCNc1cc(C(=O)N[C@@H](Cc2ccccc2)[C@H](O)CNC(C)(C)CCCC(C)C)cc(N2CCCCS2(=O)=O)c1"
  Answer label: "MET"
- Compound: "CC(C)Nc1cc(C(=O)N[C@@H](Cc2ccccc2)[C@H](O)CNCc2cccc(C(F)(F)F)c2)c(F)c(N2CCCCS2(=O)=O)c1"
  Answer label: "MET"
- Compound: "CCCCc1cc(NCc2ccncc2)nc(Nc2cccc(OC)c2)n1"
  Answer label: "MET"
- Compound: "FC(F)(F)c1ccc2[nH]c(-c3ccc(-c4cccc(CNCc5cnn(-c6ccccc6)n5)c4)s3)nc2c1.O=C(O)C(F)(F)F"
  Answer label: "NOT MET"
- Compound: "Cc1ccc(C(=O)NC2CC2)cc1-c1ccc2c(cnn2S(=O)(=O)c2ccc(F)cc2)c1"
  Answer label: "MET"
- Compound: "Cn1ncc2c3c(CCN4CCC(NCc5cc6c(cn5)OCC6)CC4)c(Cl)cnc3ccc21"
  Answer label: "NOT MET"

----------
Listed here: items and their measured % Inhibition.
test system: P. falciparum stage V gametocytes; design: BacTiter-Glo ATP luminescence viability of purified stage V gametocytes in 384-well plates, per cent inhibition versus DMSO; conditions: 48 h, 5 µM; inhibitor
Out of some 13,000 compounds screened, about 3,200 (25%) showed an effect of 50% or more. Some of the results follow.

- Compound: "Nc1nc(N)c2c(ccc3c2ccn3CCCC(F)(F)F)n1"
  % Inhibition (%): 32.41
- Compound: "CC(CON1C(N)=NC(N)=NC1(C)C)c1ccc(Cl)cc1Cl (stereo not drawn)"
  % Inhibition (%): 1.916
- Compound: "CCN1CCN(c2cc(C)c3cc(NC(=O)c4cncc(Br)c4)ccc3n2)CC1"
  % Inhibition (%): -6.09
- Compound: "Nc1c(Cl)cc(C(O)CNCCCCCOCCc2ccc3occc3c2)cc1Cl (stereo not drawn)"
  % Inhibition (%): 27.47
- Compound: "CC(C)(C(=O)Nc1ccc(C2CCC(NCC3CC3)CC2)c(Cl)c1)c1cccc(OC(F)F)c1 (stereo not drawn)"
  % Inhibition (%): 32
- Compound: "COc1cc2nc(NCCC(C)C)n3nc(-c4ccccc4)nc3c2cc1OC"
  % Inhibition (%): -18.82
- Compound: "CCn1ccc2c3c(N)nc(N)nc3ccc21"
  % Inhibition (%): 0.4857
- Compound: "O=C(Nc1nc2cc(S(=O)(=O)NCCc3ccc(F)cc3)ccc2n1CCCn1ccnc1)c1ccc(Cl)cc1"
  % Inhibition (%): 16.98
- Compound: "Nc1c(Cl)cc(C(O)CNCCCCCCCCCc2ccccn2)cc1Cl (stereo not drawn)"
  % Inhibition (%): 20.05
- Compound: "c1ccc2c(c1)cc(CNCCCN1CCN(CCCNCc3cc4ccccc4c4ccccc34)CC1)c1ccccc12"
  % Inhibition (%): 113.5
- Compound: "CN1CCN(CCCCNc2c3ccccc3nc3ccccc23)CC1"
  % Inhibition (%): 105.4
- Compound: "O=S(=O)(Nc1cccc(F)c1CNCc1ccccn1)c1ccc(Cl)c(Cl)c1"
  % Inhibition (%): 71.21
- Compound: "NC(=O)c1cccc(Nc2nccc(Nc3ccc4[nH]c(-c5ccccc5)cc4c3)n2)c1"
  % Inhibition (%): -94.87
- Compound: "CN1CCN(CCCCCCNc2c3ccccc3nc3ccccc23)CC1"
  % Inhibition (%): 98.34
- Compound: "Nc1c(Cl)cc(C(O)CNCCCCCCOCCc2ccc(CO)s2)cc1Cl (stereo not drawn)"
  % Inhibition (%): 55.37
- Compound: "Cc1cnc(CNCc2ccc(S(=O)(=O)Nc3ccc(Oc4cccc(Cl)c4)cc3)cc2)cn1"
  % Inhibition (%): -12.09
- Compound: "CC1(C)N=C(N)N=C(N)N1OCc1cccc(Cl)c1Cl"
  % Inhibition (%): 37.87
- Compound: "Nc1c(Cl)cc(C(O)CNCCCCCOCCCc2ccc3ncccc3c2)cc1Cl (stereo not drawn)"
  % Inhibition (%): 57.03
